System: PC-3
Test: NCI tumour cell line growth inhibition, 48 h
Calls of active or inactive are those of the source. Cut-off read from the data, not from the text of the source: active = GI50 up to about 1.1 µM and inactive = higher.
Labels: 1 (active), -1 (inactive)

{"columns": ["compound", "system-under-test", "assigned-label"],
 "data": [
  ["Cc1cc(C#N)c(Nc2ccc(F)cc2[N+](=O)[O-])s1", "PC-3", -1],
  ["c1ccc2c(c1)N[C@@H]1c3[nH]c4ccccc4c3CC[C@H]21", "PC-3", -1],
  ["C/C(=N/NC(=S)Nc1ccccc1C)c1ccccn1", "PC-3", 1],
  ["COC(=O)c1ccccc1C#CC#Cc1ccccc1C(=O)OC", "PC-3", -1],
  ["FC(F)(F)c1ccc2c(c1)nc(Cc1ccc(Cl)cc1)n2CC1CCCN2CCCCC12 (stereo not given)", "PC-3", -1],
  ["CC1=C(C(=O)NCC(C)O)CC(C(=O)NCC(C)O)=C(C)N1 (stereo not given)", "PC-3", -1],
  ["C/N=C1\\OC2=C3C(c4ccccc4)(O/C(=N/C)N(C)C3(c3ccccc3)OC2=O)N1C (stereo not given)", "PC-3", -1],
  ["CNc1ccc([N+](=O)[O-])cc1C(=O)N1CCC[C@H]1CO", "PC-3", -1],
  ["CC1CCC2c3c([nH]c4ccccc34)C3C(=O)N(C4CCCCC4)C(=O)C3C2C1 (stereo not given)", "PC-3", -1],
  ["COc1ccc2c(c1)C(=O)C(=O)c1cc(O)c(OC)c(OC)c1-2", "PC-3", 1]
]}

---

Tested on: KM12
Assay: NCI tumour cell line growth inhibition, 48 h
The source made the active and inactive calls. No stated cut-off is given here; in the data, active = GI50 up to about 1.1 µM and inactive = higher.
experimental-readout: GI50

{"columns": ["compound", "system-under-test", "experimental-readout", "recorded-value"],
 "data": [
  ["COc1ccc2c(c1)CCCN2S(=O)(=O)c1ccccc1[N+](=O)[O-]", "KM12", "GI50", "10.7 µM (inactive)"],
  ["C[n+]1c2n(c3nc(N)[nH]c(=O)c31)C1OC(C2)C(O)C1O (stereo not given)", "KM12", "GI50", "> 100 µM (inactive)"],
  ["CCCCCCCCCCCCCCCCCC(=O)OCC(COC1OC(COP(=O)(O)O)C(O)C(O)C1O)OC(=O)CCCCCCCCCCCCCCCCC (stereo not given)", "KM12", "GI50", "6.27 µM (inactive)"],
  ["CCCCc1ccc(Nc2nc3ncnc-3c[nH]2)cc1", "KM12", "GI50", "19.4 µM (inactive)"],
  ["O=C(CCc1nnc(S)[nH]1)Nc1cc(Cl)c(Cl)cc1Cl", "KM12", "GI50", "> 100 µM (inactive)"]
]}

---

System: SK-MEL-2
Assay: NCI tumour cell line growth inhibition, 48 h
Active and inactive are the calls of the source. Cut-off read from the data, not from the text of the source: active = GI50 up to about 1.1 µM and inactive = higher.
experimental-readout: GI50

{"columns": ["compound", "recorded-value"],
 "data": [
  ["NC(=S)N/N=C1\\CCCCC1C(O)(C(F)(F)Cl)C(F)(F)Cl (stereo not given)", "> 10 µM (inactive)"],
  ["CCOC(=O)C1CCCc2sc(N)c(C#N)c21 (stereo not given)", "> 100 µM (inactive)"],
  ["COc1ccc2[nH]c3c(C)c4c(c(C)c3c2c1)CN(C)C=C4", "2.62 µM (inactive)"],
  ["COc1ccc2c(c1)CCCN2S(=O)(=O)c1ccccc1[N+](=O)[O-]", "22.5 µM (inactive)"],
  ["CN1CCCS/C1=C1/SC(=S)N(c2ccccc2)C1=O", "> 100 µM (inactive)"]
]}

Attribution: ChEMBL document CHEMBL1201862
